The reported numbers originate from patent US7144585B1.

assayText: Absorption test of cilostazol into the large intestine (Test Example 1)
Type: in vivo, rats
studyConditions: rat, blood; female rats, large intestine loop, 100 mg/kg as CLZ
assayReadout: Cmax (ng/mL)

>>> val("O=C1CCc2cc(OCCCCc3nnnn3C3CCCCC3)ccc2N1")
170

---

assayText: Absorption test of cilostazol into the large intestine (Test Example 1)
Type: in vivo, rats
studyConditions: rat, blood, other: directly administered in a large intestine loop; female rats, large intestine loop, 100 mg/kg as CLZ; 1.0 hr after administration
assayReadout: concentration at 1 hr (ng/mL)

>>> val("O=C1CCc2cc(OCCCCc3nnnn3C3CCCCC3)ccc2N1 [Comp. Example 1, cilostazol]")
100
